# Test system: Streptococcus pneumoniae
# assay-details: In vitro antibacterial activity against the gram-positive bacteria, penicillin resistant Streptococcus pneumoniae (4630)
# Type: functional
metric: MIC (µg/mL)
Output spec: scalar in µg/mL, unitless text.

response.value for CC(=O)OCC1=C(C(=O)O)N2C(=O)[C@@H](NC(=O)CN(OCc3ccc(Cl)cc3)C(=O)Nc3ccccc3)C2SC1 (stereo partly drawn) (field: MIC) = 4

New cases:
response.value for CO/N=C(\C(=O)N[C@@H]1C(=O)N2C(C(=O)O)=C(COC(N)=O)CS[C@H]12)c1ccco1 [CEFUROXIME] (field: MIC) = 16

response.value for CC(=O)OCC1=C(C(=O)O)N2C(=O)[C@@H](NC(=O)CN(OCc3ccccc3Cl)C(=O)NCc3ccccc3)C2SC1 (stereo partly drawn) (field: MIC) = 16
